Molecular target: αvβ3 (vitronectin receptor) (Homo sapiens, UniProt P05106+P06756)
Construct: Human placenta or human platelet αvβ3 (0.1-0.3 mg/mL) in buffer T; from tissue; host or cells: human placenta or human platelets
Sequence (P06756 31-889 limits assumed): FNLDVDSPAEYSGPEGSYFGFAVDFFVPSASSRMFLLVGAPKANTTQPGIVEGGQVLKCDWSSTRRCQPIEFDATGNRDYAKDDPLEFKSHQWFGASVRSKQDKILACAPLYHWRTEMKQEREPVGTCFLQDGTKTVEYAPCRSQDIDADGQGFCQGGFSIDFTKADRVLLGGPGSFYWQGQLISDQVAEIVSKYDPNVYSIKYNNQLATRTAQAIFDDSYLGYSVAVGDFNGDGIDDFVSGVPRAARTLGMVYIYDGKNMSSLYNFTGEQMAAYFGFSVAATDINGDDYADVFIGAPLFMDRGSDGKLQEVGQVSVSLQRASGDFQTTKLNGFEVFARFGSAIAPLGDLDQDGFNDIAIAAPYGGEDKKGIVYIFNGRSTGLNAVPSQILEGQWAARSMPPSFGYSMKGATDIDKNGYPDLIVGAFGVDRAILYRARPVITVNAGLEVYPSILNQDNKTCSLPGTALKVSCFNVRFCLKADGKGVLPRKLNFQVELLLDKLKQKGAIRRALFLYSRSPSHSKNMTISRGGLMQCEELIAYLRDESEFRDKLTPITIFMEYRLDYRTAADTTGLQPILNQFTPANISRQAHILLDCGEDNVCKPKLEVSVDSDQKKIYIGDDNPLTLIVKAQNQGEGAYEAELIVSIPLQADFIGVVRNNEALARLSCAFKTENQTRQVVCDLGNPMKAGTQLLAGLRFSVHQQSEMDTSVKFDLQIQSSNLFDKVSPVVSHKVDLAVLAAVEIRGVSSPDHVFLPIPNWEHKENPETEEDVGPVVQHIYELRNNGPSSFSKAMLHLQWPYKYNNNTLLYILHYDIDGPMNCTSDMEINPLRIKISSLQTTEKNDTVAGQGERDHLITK
Sequence (P06756 891-1048 partner limits assumed): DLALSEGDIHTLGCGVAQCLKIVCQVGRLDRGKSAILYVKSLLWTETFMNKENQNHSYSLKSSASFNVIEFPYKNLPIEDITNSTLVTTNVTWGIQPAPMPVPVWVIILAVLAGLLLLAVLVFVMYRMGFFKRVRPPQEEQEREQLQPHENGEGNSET
Sequence (P05106 27-788): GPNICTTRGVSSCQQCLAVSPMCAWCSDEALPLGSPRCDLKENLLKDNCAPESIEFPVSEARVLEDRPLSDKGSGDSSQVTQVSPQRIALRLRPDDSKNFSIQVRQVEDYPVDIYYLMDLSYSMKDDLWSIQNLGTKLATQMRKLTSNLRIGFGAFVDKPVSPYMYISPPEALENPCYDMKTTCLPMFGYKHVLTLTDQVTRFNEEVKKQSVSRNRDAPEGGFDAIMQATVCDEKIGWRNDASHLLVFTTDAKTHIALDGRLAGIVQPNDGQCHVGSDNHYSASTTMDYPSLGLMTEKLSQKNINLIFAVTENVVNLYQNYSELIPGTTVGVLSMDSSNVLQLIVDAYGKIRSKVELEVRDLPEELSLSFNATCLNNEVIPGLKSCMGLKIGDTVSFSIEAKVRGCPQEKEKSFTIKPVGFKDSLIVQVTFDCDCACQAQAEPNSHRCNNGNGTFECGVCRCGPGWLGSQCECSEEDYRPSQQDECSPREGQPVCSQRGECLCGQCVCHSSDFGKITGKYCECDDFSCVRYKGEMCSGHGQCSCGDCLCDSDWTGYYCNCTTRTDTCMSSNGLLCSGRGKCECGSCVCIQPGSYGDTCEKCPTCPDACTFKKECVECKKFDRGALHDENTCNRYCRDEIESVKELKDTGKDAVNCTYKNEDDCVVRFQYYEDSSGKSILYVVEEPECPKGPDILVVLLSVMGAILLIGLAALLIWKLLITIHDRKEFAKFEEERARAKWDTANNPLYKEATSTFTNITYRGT
Experiment: Solid-Phase [3H]-SK&F-107260 Binding to αvβ3
Settings: human placenta or human platelet αvβ3; competition with 5.0 nM [3H]-SK&F-107260; Ki=IC50/(1+L/Kd)
Description: 0.1-0.2 μg of αvβ3 was added per well. The plates were incubated overnight at 4° C. At the time of the experiment, the wells were washed once with buffer A and were incubated with 0.1 mL of 3.5% bovine serum albumin in the same buffer for 1 hr at room temperature. Following incubation the wells were aspirated completely and washed twice with 0.2 mL buffer A. […]
measure.name: Ki

Query string: Any idea what its Ki is? The molecule is O=C(O)C[C@@H]1Cc2ccc(OCCc3ccc4c(n3)NCCC4)cc2Cc2ccccc21
Result string: ~1.7 nM

Hey, just so you know, these numbers are from patent US6495560B1.
